measured.target: RORα (Homo sapiens)
Construct: uniprot ID P35398-2, aa 266- 523
Sequence (P35398 266-523): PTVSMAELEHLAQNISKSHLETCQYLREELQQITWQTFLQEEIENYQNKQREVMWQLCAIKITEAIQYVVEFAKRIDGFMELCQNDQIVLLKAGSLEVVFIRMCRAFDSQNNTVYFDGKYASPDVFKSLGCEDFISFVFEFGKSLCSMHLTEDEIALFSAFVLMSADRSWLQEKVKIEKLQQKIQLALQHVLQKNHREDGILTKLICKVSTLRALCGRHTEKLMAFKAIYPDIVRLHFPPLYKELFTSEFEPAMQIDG
run.description: Gal4-RORα hybrid reporter gene assay in HEK293T cells
test.settings: Gal4 hybrid reporter gene assay, inverse agonism, mean±S.E.M., n≥4
result.type: pIC50
Note: pIC50 values are expressed as the negative base-10 logarithm of concentration in M.

Reported pIC50 for "O=S(=O)(Cc1ccccc1)N(Cc1ccc(N2CCC(C(F)(F)F)CC2)cc1F)C1CCC1" was 4.64

Entry "O=S(=O)(Cc1ccccc1)N(Cc1ccc(N2CCC(C(F)(F)F)CC2)cc1)C1CCC1" — recorded pIC50 = 5.00

---

measured.target: RORβ (Homo sapiens, UniProt Q92753)
Construct: uniprot ID Q92753-2, aa 216-470; expressed in transfected cells; host or cells: HEK293T
Sequence (Q92753 216-470): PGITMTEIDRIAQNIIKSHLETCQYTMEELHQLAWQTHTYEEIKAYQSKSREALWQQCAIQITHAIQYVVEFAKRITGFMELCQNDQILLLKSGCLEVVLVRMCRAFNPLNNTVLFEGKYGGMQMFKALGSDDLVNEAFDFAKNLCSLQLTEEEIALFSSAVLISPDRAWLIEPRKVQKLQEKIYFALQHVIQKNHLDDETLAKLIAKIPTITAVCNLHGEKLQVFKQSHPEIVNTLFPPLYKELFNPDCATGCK
run.description: Gal4-RORβ hybrid reporter gene assay in HEK293T cells
Format: cell-based
test.settings: Gal4 hybrid reporter gene assay, inverse agonism, mean±S.E.M., n≥4
From the text: In vitro characterization of compounds 1, 2, and 3 in Gal4‐ROR hybrid reporter gene assays confirmed inverse RORγ agonism with micromolar to sub‐micromolar IC50 values (Table 1). In vitro Characterization Methods Hybrid reporter gene assays. […]
Provide the reported IC50 of each item.

Item: O=S(=O)(Cc1ccccc1)N(Cc1ccc(N2CCC(C(F)(F)F)CC2)cc1F)C1CCC1 [Compound 2] | IC50: 22 µM

IC50 reading for O=C1CC2(CCCC2)CC(=O)N1CCCCN1CCN(c2ccc(Cl)cc2)CC1 [Compound 1] : > 10 µM

Measured IC50, O=S(=O)(Cc1ccccc1)N(Cc1ccc(N2CCC(C(F)(F)F)CC2)cc1)C1CCC1 [Compound 3] : 7.6 µM

Cited source: paper PMC8457062
